target: Integrin beta-1 (Homo sapiens) + Integrin alpha-4 (Homo sapiens) (UniProt P13612+P05556); test: alpha4beta1 integrin LIBS antibody binding reduction – U937 cells, HUTS-21 mAb, flow cytometry, validation set, VLA-4 allosteric modulator project, pilot screen (AID 2674); conditions: HUTS-21 LIBS mAb binding, at 6.7 µM, stronger effect = higher value, binding induced by LDV ligand;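 note: antibody binding induced by the VLA-4 ligand LDV present at three times its Kd; 0% = LDV ligand with antibody and no compound and 100% = antibody without LDV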
Sequence (P05556 whole entry, looked up): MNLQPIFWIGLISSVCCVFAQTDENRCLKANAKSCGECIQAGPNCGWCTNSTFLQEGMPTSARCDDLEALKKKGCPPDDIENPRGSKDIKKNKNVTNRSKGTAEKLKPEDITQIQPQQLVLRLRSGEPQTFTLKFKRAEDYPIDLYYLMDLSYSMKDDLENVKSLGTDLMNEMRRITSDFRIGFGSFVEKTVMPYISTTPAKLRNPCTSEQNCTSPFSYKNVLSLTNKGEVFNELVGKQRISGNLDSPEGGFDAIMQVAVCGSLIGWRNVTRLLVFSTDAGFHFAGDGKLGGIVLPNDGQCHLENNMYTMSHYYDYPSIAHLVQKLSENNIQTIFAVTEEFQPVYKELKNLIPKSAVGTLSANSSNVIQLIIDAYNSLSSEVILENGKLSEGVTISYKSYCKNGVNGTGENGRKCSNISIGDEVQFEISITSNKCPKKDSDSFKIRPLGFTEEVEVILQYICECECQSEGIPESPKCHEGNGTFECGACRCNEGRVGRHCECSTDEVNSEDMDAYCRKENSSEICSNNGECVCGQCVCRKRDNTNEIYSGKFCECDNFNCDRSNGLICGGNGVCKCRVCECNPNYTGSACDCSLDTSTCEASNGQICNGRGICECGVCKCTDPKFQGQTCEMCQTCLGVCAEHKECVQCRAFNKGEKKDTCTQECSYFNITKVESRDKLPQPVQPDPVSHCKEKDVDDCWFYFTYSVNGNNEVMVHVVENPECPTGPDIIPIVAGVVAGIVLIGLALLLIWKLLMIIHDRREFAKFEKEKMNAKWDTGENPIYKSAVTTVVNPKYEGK
Sequence (P13612 whole entry, looked up): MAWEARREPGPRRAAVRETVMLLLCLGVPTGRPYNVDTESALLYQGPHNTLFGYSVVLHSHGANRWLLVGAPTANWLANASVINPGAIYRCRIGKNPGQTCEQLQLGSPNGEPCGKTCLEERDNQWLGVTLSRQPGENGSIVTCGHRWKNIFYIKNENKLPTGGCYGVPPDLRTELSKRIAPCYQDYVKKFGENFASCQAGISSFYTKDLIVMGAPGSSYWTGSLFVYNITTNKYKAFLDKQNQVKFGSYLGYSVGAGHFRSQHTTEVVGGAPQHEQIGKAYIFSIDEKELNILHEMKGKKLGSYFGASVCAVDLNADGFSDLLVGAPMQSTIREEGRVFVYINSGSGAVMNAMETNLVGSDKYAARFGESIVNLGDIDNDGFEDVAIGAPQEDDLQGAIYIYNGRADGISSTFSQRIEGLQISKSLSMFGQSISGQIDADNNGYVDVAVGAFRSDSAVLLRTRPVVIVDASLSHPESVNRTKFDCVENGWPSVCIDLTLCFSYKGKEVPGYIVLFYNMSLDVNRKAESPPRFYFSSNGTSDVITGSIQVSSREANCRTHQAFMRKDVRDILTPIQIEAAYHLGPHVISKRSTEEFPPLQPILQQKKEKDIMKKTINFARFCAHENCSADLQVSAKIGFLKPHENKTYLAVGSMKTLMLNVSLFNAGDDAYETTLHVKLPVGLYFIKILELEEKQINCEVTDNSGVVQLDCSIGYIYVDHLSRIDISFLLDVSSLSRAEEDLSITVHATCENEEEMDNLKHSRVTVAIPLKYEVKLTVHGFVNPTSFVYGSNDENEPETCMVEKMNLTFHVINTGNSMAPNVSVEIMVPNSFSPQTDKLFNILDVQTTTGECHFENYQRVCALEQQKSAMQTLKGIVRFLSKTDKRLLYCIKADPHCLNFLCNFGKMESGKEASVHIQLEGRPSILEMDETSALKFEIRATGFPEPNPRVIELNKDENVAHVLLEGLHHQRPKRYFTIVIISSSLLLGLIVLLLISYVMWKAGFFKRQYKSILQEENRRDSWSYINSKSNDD
The source made the active and inactive calls.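 Rule for the calls: active = inhibition above 50%, about 3 SD of the validation set; inactive = the rest.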
assay.metric: inhibition

[[record]]
compound = "COc1ccc(N2CCN(C(=S)NCc3ccccc3)CC2)cc1"
assay_metric = "inhibition"
data_value = "0.64% (inactive)"

[[record]]
compound = "CC1=NS(=O)(=O)c2cc(Cl)ccc2N1"
assay_metric = "inhibition"
data_value = "-3.57% (inactive)"

[[record]]
compound = "CCC(CO)NCCNC(CC)CO (stereo not drawn)"
assay_metric = "inhibition"
data_value = "4.52% (inactive)"


====

experiment: cytosolic pH regulators acting via V-ATPase – S. cerevisiae, pHLuorin, HTS validation (AID 504600); conditions: V-ATPase proton transport, at 10 µM;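 note: plate controls were DMSO for no effect and reference compound for full effect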
The source made the active and inactive calls. Cut-off read from the data, not from the text of the source: active = response above about 15%; inactive = the rest.
Outcome codes: label 1 = active, label 0 = inactive

[[record]]
compound = "Cc1nnc(NS(=O)(=O)c2ccc(N)cc2)s1"
group = "label 0"

[[record]]
compound = "CC(C)OC(=O)C1C(=O)CC(C)(O)C(C(=O)OC(C)C)C1c1cccc(O)c1 (configuration not stated)"
group = "label 0"

[[record]]
compound = "Nc1cnn(C2OC(CO)C(O)C2O)c(=O)n1 (configuration not stated)"
group = "label 0"

[[record]]
compound = "CCc1c(C(C)=O)oc2ccc3c(C)cc(=O)oc3c12"
group = "label 0"

[[record]]
compound = "Cc1ccc(S(=O)(=O)NC(C(=O)Oc2cc3oc(=O)cc(C)c3cc2Cl)C(C)C)cc1 (configuration not stated)"
group = "label 0"

[[record]]
compound = "COc1ccccc1NC(=O)C12CCC(C)(C(=O)C1)C2(C)C (configuration not stated)"
group = "label 0"

[[record]]
compound = "Cc1cnc(NC(=O)C2=C(O)c3ccccc3S(=O)(=O)N2C)s1"
group = "label 0"

[[record]]
compound = "O=C(Nc1cccc(C(=O)O)c1)/C(=C\\c1ccccc1)NC(=O)c1ccccc1"
group = "label 0"

[[record]]
compound = "O=C(Nc1cccc(Oc2c(F)c(F)c(F)c(F)c2F)c1)N1C[C@@H]2C[C@@H](C1)c1cccc(=O)n1C2"
group = "label 0"

[[record]]
compound = "COC(=O)c1ccccc1NC(=O)c1ccc(COc2ccc3c(c2)CCC3)cc1"
group = "label 0"

[[record]]
compound = "O=C1C(Cc2c[nH]c3ccccc23)NC(=S)N1Cc1ccccc1 (configuration not stated)"
group = "label 0"

[[record]]
compound = "O=C1OC(Nc2ccc3c(c2)OCO3)c2ccccc21 (configuration not stated)"
group = "label 0"

[[record]]
compound = "c1coc(-c2nnc3n2C2(CCCC2)Cc2ccccc2-3)c1"
group = "label 0"

[[record]]
compound = "O=C(c1cccnc1)N1N=C(C2CC2)CC1(O)C(F)(F)F (configuration not stated)"
group = "label 0"

[[record]]
compound = "O=c1cc(-c2ccccc2)oc2cc(OCc3ccccc3)cc(O)c12"
group = "label 0"

[[record]]
compound = "Cc1ccc(-c2nn(-c3cccc(F)c3)cc2CN2CCN(c3ccccn3)CC2)o1"
group = "label 0"

[[record]]
compound = "CNCCCC1c2ccccc2C=Cc2ccccc21"
group = "label 0"

[[record]]
compound = "CC1(C)Cc2nc3sc4c(=O)n(CC(N)=O)cnc4c3cc2CO1"
group = "label 0"

[[record]]
compound = "CCCn1c(=O)c2[nH]c(C3CCCC3)nc2n(CCC)c1=O"
group = "label 0"

[[record]]
compound = "CC(=O)OCC(=O)[C@@]1(O)CC[C@H]2[C@@H]3CCC4=CC(=O)CC[C@]4(C)[C@H]3[C@@H](O)C[C@@]21C"
group = "label 0"

[[record]]
compound = "Cc1ccc(C2=NOC(=O)/C2=C\\C=C\\c2ccccc2)cc1"
group = "label 0"

[[record]]
compound = "O=C(Nc1nc2ccccc2s1)c1ccc(F)cc1"
group = "label 0"

[[record]]
compound = "CCOCC(=O)Nc1ccccc1C(=O)N1CCOCC1"
group = "label 0"

[[record]]
compound = "CC12CN3CC(C)(CN(C1)C3c1ccc(Br)cc1O)C2 (configuration not stated)"
group = "label 1"

[[record]]
compound = "COc1ccc2cc(C3(C)NC(=O)NC3=O)ccc2c1 (configuration not stated)"
group = "label 0"

[[record]]
compound = "N=c1c[n+](N2CCOCC2)[n-]o1"
group = "label 0"

[[record]]
compound = "CN/C(=C/[N+](=O)[O-])NCCSCc1ccc(CN(C)C)o1"
group = "label 0"


====

target: Cell division control protein 42 homolog (Homo sapiens) (UniProt P60953); experiment: inhibition of fluorescent GTP binding to wildtype Cdc42 – biochemical, multiplex bead flow cytometry, Bodipy-FL-GTP, dose response (AID 1334); conditions: bead-based flow cytometry, Bodipy-FL-GTP binding to GST-Cdc42; at 100 µM (top of the series) unless noted
Sequence (P60953 whole entry, looked up): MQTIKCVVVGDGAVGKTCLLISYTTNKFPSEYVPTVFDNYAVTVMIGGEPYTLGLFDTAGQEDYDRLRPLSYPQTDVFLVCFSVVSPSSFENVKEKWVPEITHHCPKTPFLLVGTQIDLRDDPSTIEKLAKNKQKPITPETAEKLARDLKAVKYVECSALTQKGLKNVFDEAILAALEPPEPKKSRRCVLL
Potency and affinity values are given separately.
assay.metric: fluorescence, percent of control (lower = inhibition) (%)

[[record]]
substance_smiles = "COc1cc(/C=N/NC(=O)CN(Cc2ccccc2)S(=O)(=O)c2ccc3c(c2)OCCO3)ccc1O"
measurement_target = "Cell division control protein 42 homolog (Homo sapiens) (UniProt P60953)"
data_value = 40.1

[[record]]
substance_smiles = "COc1cc(/C=N/NC(=O)c2cc3ccccc3cc2O)ccc1OCCN1CCCCC1"
measurement_target = "Cell division control protein 42 homolog (Homo sapiens) (UniProt P60953)"
data_value = 39.4

[[record]]
substance_smiles = "Cc1cc(-c2n[nH]c(=S)n2/N=C/c2cc([N+](=O)[O-])ccc2Cl)n[nH]1"
measurement_target = "Cell division control protein 42 homolog (Homo sapiens) (UniProt P60953)"
data_value = 40.4


====

molecular target: Guanine nucleotide-binding protein G(o) subunit alpha (Homo sapiens); assay: retest of RGS7-Galphao interaction hits – biochemical, multiplexed bead flow cytometry, single concentration, confirmation (AID 1837); conditions: bead-based flow cytometry RGS7-Galphao binding; at 10 µM; actives lie on both sides;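 note: fluorescent Galphao activated with GDP and aluminum fluoride binding bead-coupled RGS7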
The list shows a part of the results. Calls of active or inactive are those of the source. Cut-off read from the data, not from the text of the source: active = response below about 75% or above about 130%; inactive = in between.
Outcomes: TRUE = active, FALSE = inactive

[[record]]
molecule = "CCOC(=O)c1oc2c(CN3CCN(C)CC3)c(O)ccc2c(=O)c1-c1ccc(Br)cc1"
group = "FALSE"

[[record]]
molecule = "CC1(C)C=C2[C@H]3CC[C@@H]4[C@@]5(C)CCC(=O)C(C)(C)[C@@H]5CC[C@@]4(C)[C@]3(C)CC[C@@]2(C(=O)O)CC1"
group = "FALSE"

[[record]]
molecule = "C/C(=N\\NS(=O)(=O)c1ccc(Br)cc1)c1cccs1"
group = "FALSE"

[[record]]
molecule = "O=C(Nc1ccccc1)OCc1cc(-c2ccc(Cl)cc2)on1"
group = "FALSE"

[[record]]
molecule = "Cc1cc(C)n(CC(O)CN(c2ccccc2)S(=O)(=O)c2ccc3ccccc3c2)n1 (stereo unspecified)"
group = "FALSE"

[[record]]
molecule = "CN(C)S(=O)(=O)Oc1ccccc1C(=O)Nc1ccccc1Cl"
group = "FALSE"

[[record]]
molecule = "Cc1ccccc1NC(=S)N(CCCN1CCOCC1)Cc1cccs1"
group = "FALSE"

[[record]]
molecule = "CSc1ccc(CN2C(=O)NC3(CCCCCC3)C2=O)cc1"
group = "FALSE"

[[record]]
molecule = "O=C(Nc1cccc(-c2nc3ccccc3[nH]2)c1)c1ccc(C(=O)Nc2cccc(-c3nc4ccccc4[nH]3)c2)cc1"
group = "TRUE"

[[record]]
molecule = "CCn1c(CSCc2c(Cl)cccc2Cl)n[nH]c1=S"
group = "FALSE"

[[record]]
molecule = "CCOC(=O)CCP(=O)(O)C(O)(c1ccccc1)c1ccccc1"
group = "FALSE"

[[record]]
molecule = "O=C(CN1CCOCC1)Nc1ccccc1"
group = "FALSE"

[[record]]
molecule = "COc1ccc(C(=O)NNc2cc(C)nc(NNC(=O)c3ccc(OC)cc3)n2)cc1"
group = "FALSE"

[[record]]
molecule = "NC(=O)Cc1ccc2sc(-c3ccccc3)nc2c1"
group = "TRUE"

[[record]]
molecule = "Cc1cccc(S(=O)(=O)CC(=O)Nc2nc(-c3ccccc3)cs2)c1"
group = "FALSE"

[[record]]
molecule = "COc1ccccc1NC(=O)CCCc1c[nH]c2ccccc12"
group = "FALSE"

[[record]]
molecule = "CC(NC(=O)COC(=O)C1CCN(S(=O)(=O)c2ccccc2C(F)(F)F)CC1)c1ccccc1 (stereo unspecified)"
group = "FALSE"

[[record]]
molecule = "CCCC1C(c2ccccc2)C(C#N)(C#N)C2(C#N)CC1(N)NC2=O (stereo unspecified)"
group = "FALSE"

[[record]]
molecule = "COc1ccc(-n2c(SCC(=O)OC(C)C)nnc2-c2ccccn2)cc1"
group = "FALSE"

[[record]]
molecule = "Cc1ccc(N2C(=O)C3C(c4ccccc4)(C2=O)C3(c2ccccc2)c2ccccc2)cc1 (stereo unspecified)"
group = "TRUE"

[[record]]
molecule = "CCOC(=O)CSc1nc2c(c(=O)n(Cc3ccccc3Cl)c(=O)n2C)n1C"
group = "FALSE"

[[record]]
molecule = "CCN(CC)S(=O)(=O)c1cccc(-c2n[nH]c(=S)n2/N=C/c2ccc(C(=O)OC)cc2)c1"
group = "FALSE"

[[record]]
molecule = "FC(F)Oc1ccccc1C1CC(c2ccc(Br)s2)Nc2ncnn21 (stereo unspecified)"
group = "FALSE"

[[record]]
molecule = "CCOc1ccc(NC(=O)CSc2nc3ccccc3c(=O)n2Cc2cccs2)cc1"
group = "FALSE"

[[record]]
molecule = "Oc1ccc(N=Nc2nccs2)c(O)c1"
group = "FALSE"

[[record]]
molecule = "COc1ccc(C(=O)COC(=O)c2ccc3ccccc3n2)cc1"
group = "FALSE"

